targetOrSystem: NR1/NR2B (Homo sapiens (Human), UniProt Q05586+Q13224)
Sequence (Q13224 27-1484, other chains not shown): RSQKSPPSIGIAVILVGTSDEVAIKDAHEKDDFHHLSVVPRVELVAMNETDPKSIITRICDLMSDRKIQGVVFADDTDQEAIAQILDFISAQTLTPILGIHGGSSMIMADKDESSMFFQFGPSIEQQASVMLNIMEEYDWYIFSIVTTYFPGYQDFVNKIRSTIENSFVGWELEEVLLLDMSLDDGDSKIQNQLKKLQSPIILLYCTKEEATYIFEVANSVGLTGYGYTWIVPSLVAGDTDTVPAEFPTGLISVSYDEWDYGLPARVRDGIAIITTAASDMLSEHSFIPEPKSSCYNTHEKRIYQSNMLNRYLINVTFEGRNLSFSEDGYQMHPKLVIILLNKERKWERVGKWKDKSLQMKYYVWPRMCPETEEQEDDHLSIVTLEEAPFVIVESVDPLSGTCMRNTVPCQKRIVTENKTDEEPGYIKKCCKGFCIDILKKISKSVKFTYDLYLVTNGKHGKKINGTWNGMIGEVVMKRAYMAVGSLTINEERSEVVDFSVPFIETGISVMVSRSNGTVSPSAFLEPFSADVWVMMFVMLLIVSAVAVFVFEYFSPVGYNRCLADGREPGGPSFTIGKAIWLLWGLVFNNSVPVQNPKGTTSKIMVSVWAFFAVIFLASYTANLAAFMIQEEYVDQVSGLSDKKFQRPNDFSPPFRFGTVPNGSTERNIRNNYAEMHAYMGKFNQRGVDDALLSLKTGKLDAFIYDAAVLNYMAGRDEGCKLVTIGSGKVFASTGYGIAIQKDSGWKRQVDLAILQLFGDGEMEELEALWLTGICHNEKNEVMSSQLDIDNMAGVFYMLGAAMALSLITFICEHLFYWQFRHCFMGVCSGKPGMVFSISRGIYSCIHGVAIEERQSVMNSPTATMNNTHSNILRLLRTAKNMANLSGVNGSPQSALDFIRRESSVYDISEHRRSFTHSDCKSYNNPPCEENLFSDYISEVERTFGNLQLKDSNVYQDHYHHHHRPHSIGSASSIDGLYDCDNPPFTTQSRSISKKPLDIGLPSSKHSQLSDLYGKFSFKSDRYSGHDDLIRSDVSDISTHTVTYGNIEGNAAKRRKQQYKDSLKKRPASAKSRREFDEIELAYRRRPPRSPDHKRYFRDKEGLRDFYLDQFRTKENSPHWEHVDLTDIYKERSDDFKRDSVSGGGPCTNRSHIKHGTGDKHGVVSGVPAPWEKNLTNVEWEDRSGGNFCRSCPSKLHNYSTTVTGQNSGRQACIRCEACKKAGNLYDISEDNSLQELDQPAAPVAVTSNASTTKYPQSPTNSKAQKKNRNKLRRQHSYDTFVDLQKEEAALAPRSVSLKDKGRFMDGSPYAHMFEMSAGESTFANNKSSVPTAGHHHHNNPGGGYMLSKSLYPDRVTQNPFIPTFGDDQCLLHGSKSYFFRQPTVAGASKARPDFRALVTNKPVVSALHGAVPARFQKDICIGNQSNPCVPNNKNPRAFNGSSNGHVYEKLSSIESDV
procedureText: Cell assay: FDSS Ca2+ influx inhibition in HEK293 cells expressing NR1/NR2B;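 note: Fluo-8 Ca2+ signal read on Hamamatsu FDSS 6000 after glutamate, glycine and Ca2+ challenge following 10 min compound preincubation, end/baseline fluorescence ratio compared with MK801 control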
statedConditions: NR2B NAM IC50, HEK293 cells expressing NR1/NR2B, Ca2+ influx
Reported IC50 values are given for each entry in this list.
# value in µM; strip the unit string

Solved entries (count: 3):
>>> df
                                   molecule  datavalue
0  Oc1ccc(C(O)CN2C[C@H]3CN(Cc4ccccc4)C[C@H]3C2)cc1F (mixture of isomers)     0.0743
1  Oc1ccc(C(O)CN2C[C@@H]3C[C@@](O)(Cc4ccccc4F)C[C@@H]3C2)cc1 (mixture of isomers)     0.0155
2  CO[C@@]1(Cc2ccccc2)C[C@H]2CN(CC(O)c3ccc(O)c(F)c3)C[C@H]2C1 (mixture of isomers)     0.0324

QUERY: What value of measured IC50 is listed for Oc1ccc(C(O)CN2C[C@@H]3C[C@@](O)(Cc4cccc(F)c4F)C[C@@H]3C2)nc1 (mixture of isomers) ?
RESULT: 0.0476

QUERY: What value of measured IC50 is listed for Oc1ccc(C(O)CN2CC3(C2)CC(O)(Cc2ccccc2)C3)cc1 (racemic) ?
RESULT: 0.506

QUERY: What value of measured IC50 is listed for Oc1ccc(C(O)CN2C[C@H]3C[C@@H](Cc4ccccc4)C[C@H]3C2)cc1F (mixture of isomers) ?
RESULT: 0.0122

QUERY: What value of measured IC50 is listed for Cc1cc(F)ccc1C[C@]1(O)C[C@H]2CN(CC(O)c3ccc(O)cc3)C[C@H]2C1 (mixture of isomers) ?
RESULT: 0.0425
